Data origin: the supplement of paper PMC6992640

Tested on: UCD52 (cells of a triple-negative basal-like breast cancer xenograft);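 further: cells dissociated from PDX tumors propagated in female NSG mouse mammary fat pads, vehicle control 0.1% DMSO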
Assay Method Text: cell viability (% of vehicle); higher = less cytotoxic
Stated Conditions: 1 µM; 72 h
Where a name gives a salt, the structure may show the parent alone.
Friendly reminder: cell viability below 90 is MET, at or above is NOT MET.

INSERT INTO results (compound, measurement_target, assigned_label) VALUES
  ('Cc1ccc(C(=O)N(CCCN)C(c2nc3cc(Cl)ccc3c(=O)n2Cc2ccccc2)C(C)C)cc1 (stereo not given)', 'UCD52', 'MET'),
  ('COc1nc2ccc(Br)cc2cc1[C@@H](c1ccccc1)[C@@](O)(CCN(C)C)c1cccc2ccccc12 [Bedaquiline fumarate]', 'UCD52', 'NOT MET'),
  ('COc1ccc2cc1Oc1ccc(cc1)CC1c3c(cc4c(c3Oc3cc5c(cc3OC)CCN(C)C5C2)OCO4)CCN1C (stereo not given) [Cepharanthine]', 'UCD52', 'MET');

Now take the following compound into account.
Exam item: Is cell viability of CCc1cnn2c(NCc3ccc[n+]([O-])c3)cc(N3CCCCC3CCO)nc12 (stereo not given) strictly below 90?
Marked response: MET

* * *

Here, each record is paired with measured cell viability data.
Test system: HCI01 (cells of a triple-negative basal-like breast cancer xenograft)
Assay Method Text: cell viability (% of vehicle); higher = less cytotoxic
Stated Conditions: 10 µM; 72 h
Lab note: record the figure alone, no unit after it.

Solved cases below.
INSERT INTO results (molecule, measurement_target, numeric_readout) VALUES
  ('CC(C)c1c(C(=O)Nc2ccccc2)c(-c2ccccc2)c(-c2ccc(F)cc2)n1CCC(O)CC(O)CC(=O)[O-].CC(C)c1c(C(=O)Nc2ccccc2)c(-c2ccccc2)c(-c2ccc(F)cc2)n1CCC(O)CC(O)CC(=O)[O-].[Ca+2] (stereo not drawn) [Atorvastatin Calcium]', 'HCI01', 89.2),
  ('CCCC(=O)[O-].[Na+] [Sodium butyrate]', 'HCI01', 99.3),
  ('COc1ccc(C(=O)CC(=O)c2ccc(C(C)(C)C)cc2)cc1 [Avobenzone]', 'HCI01', 74.2),
  ('CN1C(C(=O)Nc2ccccn2)=C(O)c2sc(Cl)cc2S1(=O)=O [Lornoxicam]', 'HCI01', 95.2),
  ('CC1(COc2ccc3c(c2)ncn3-c2ccc3cccc(N4CCC(N)CC4)c3n2)COC1', 'HCI01', 41.1),
  ('CCN(CC)C(=O)C1(c2ccccc2)CC1CN.Cl (stereo not drawn) [Milnacipran HCl]', 'HCI01', 68.6),
  ('CC1CC2C(C(O)CC3(C)C2CCC3(O)C(=O)CO)C2(C)C=CC(=O)C=C12 (stereo not drawn) [Methylprednisolone]', 'HCI01', 145),
  ('Cc1c(F)cc(C(=O)NC2CC2)cc1-c1ccc(C(=O)NCC(C)(C)C)cn1 [Losmapimod]', 'HCI01', 84);

// recorded cell viability for O=C(NC(CO)C(O)c1ccc([N+](=O)[O-])cc1)C(Cl)Cl (stereo not drawn) [Chloramphenicol] : 109

Per the record, CCC(C)n1ncn(-c2ccc(N3CCN(c4ccc(OCC5COC(Cn6cncn6)(c6ccc(Cl)cc6Cl)O5)cc4)CC3)cc2)c1=O (stereo not drawn) [Itraconazole] has cell viability of 93.5

* * *

Test system: HCI01;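 further: PDX cells carrying CMV promoter-driven luciferase, viability read as total photon flux per second by IVIS imaging following D-luciferin, vehicle control 0.1% DMSO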
Assay Method Text: cell viability (% of vehicle); higher = less cytotoxic
Stated Conditions: 10 µM; 72 h
Measured Quantity: cell viability
Reply with just the number.

For reference, reported cell viability for O=C1C(=O)c2ccccc2C(O)=C1C1CCC(c2ccc(Cl)cc2)CC1 (configuration not stated) [Atovaquone] stands at 81.6

NCC(O)c1ccc(O)c(O)c1.O.O=C(O)C(O)C(O)C(=O)O (configuration not stated) [Noradrenaline bitartrate monohydrate] yielded cell viability of 86.8

Please fill in: cell viability reported for `COc1ncc(-c2ccc3nccc(-c4ccnnc4)c3c2)cc1NS(=O)(=O)c1ccc(F)cc1F` = 64.1

CC[N+](CC)(CC)CCOc1cccc(OCC[N+](CC)(CC)CC)c1OCC[N+](CC)(CC)CC.[I-].[I-].[I-] [Gallamine Triethiodide] has a reported cell viability of 107

According to the records, this molecule CCCNS(=O)(=O)Nc1ncnc(OCCOc2ncc(Br)cn2)c1-c1ccc(Br)cc1 [Macitentan] displays cell viability of 75.9

Value of cell viability reported for the molecule NS(=O)(=O)c1cc(C(=O)O)c(NCc2ccco2)cc1Cl [Furosemide] is 108

The molecule identified as CC(C(=O)O)c1ccc2c(c1)[nH]c1ccc(Cl)cc12 (configuration not stated) [Carprofen] registered its cell viability at 175
